Molecular target: T1, monomeric human CTLA-4 (human, UniProt P16410 36-161, limits assumed)
T1 construct: Soluble monomeric analyte in SPR; also called huCTLA-4
T1 sequence: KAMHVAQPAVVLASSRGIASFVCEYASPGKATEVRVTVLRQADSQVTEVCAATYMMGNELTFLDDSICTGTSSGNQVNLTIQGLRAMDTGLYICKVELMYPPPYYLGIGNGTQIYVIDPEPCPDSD
Test: SPR, captured Fab, pH 6.0
Parameter: kon (M⁻¹ s⁻¹)
Write it as a number; the unit M⁻¹ s⁻¹ goes unstated.

Exercise: I'd like to know its kon. The binder in question is ipi.95 Fab (Fab, V domains shown, Tested as monovalent Fab) VH: QVQLVESGGGVVQPGRSLRLSCAASGFTFSHYTMHWVRQAPGKGLEWVTFISYDGHNKYYADSVKGRFTISRDNSKNTLYLQMNSLRAEDTAIYYCARTGWLGPFDYWGQGTLVTVSS VL: EIVLTQSPGTLSLSPGERATLSCRASQEVGDSELAWYQQKPGQAPRLLIYGAFSRATGIPDRFSGSGSGTDFTLTISRLEPEDFAVYYCQQYGSSPWTFGQGTKVEIKR
Key: 1.9e+06

Exercise: Input ipi.106 Fab (Fab, V domains shown, Tested as monovalent Fab) VH: QVQLVESGGGVVQPGRSLRLSCAASGFTFSHYTMHWVRQAPGKGLEWVTFISYDGHNKYYADSVKGRFTISRDNSKNTLYLQMNSLRAEDTAIYYCARHGWLGPFDYWGQGTLVTVSS VL: EIVLTQSPGTLSLSPGERATLSCRASQEVGESELAWYQQKPGQAPRLLIYGAFSRATGIPDRFSGSGSGTDFTLTISRLEPEDFAVYYCQQYGSSPWTFGQGTKVEIKR
Key: 1.2e+06
